# experimental details: Dog GLP 28-day repeat-dose study, PK at the NOAEL
# measurement parameters: male, Beagle, in vivo, 5 mg/kg, Tmax, 5 mg/kg (NOAEL), Day 28, median
observation type: Tmax (h)

>>> result_number("Cc1ccc(C2=CC(C)(C)Oc3ccc(-c4ccc(-c5ccc(C(=O)O)cc5)[nH]4)cc32)cc1 [Compound A]")
2

---

# experimental details: Phase 1a single ascending oral dose study, PK
# measurement parameters: male, human, in vivo; single oral dose 10 mg, fasted; geometric mean
observation type: AUC(0-inf)

>>> result("Cc1ccc(C2=CC(C)(C)Oc3ccc(-c4ccc(-c5ccc(C(=O)O)cc5)[nH]4)cc32)cc1")
"9560 ng·h/mL"
